Origin of the recorded values: the RNAGym collection of RNA variant scans (doi:10.1073/pnas.2313332121)

B1: TPR t1 (parent)
chain: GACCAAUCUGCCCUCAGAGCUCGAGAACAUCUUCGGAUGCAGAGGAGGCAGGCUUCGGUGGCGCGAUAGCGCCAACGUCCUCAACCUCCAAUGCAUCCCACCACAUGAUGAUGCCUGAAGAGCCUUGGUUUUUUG

# Variants of: B1
# protocol_details: polymerase ribozyme fitness, log enrichment relative to wild type (log ratio); higher = more active; in vitro selection for triplet polymerase activity
endpoint_label: polymerase ribozyme fitness (log ratio)
One number for each entry.

// known answers, use as guide
mutant_code | recorded_measurement
C20G C72A C115A | -4.55
G35A C88U C102A | -5.27
A5C C89G C114G U126C U131A | -5.03
C79A C88U C101U | -0.735

Please go through the list and note polymerase ribozyme fitness (log ratio) for each variant.
1. C3A A37U C114U
2. A46U C53U A84C C88U
3. C22A C101U U106C
4. U7A C12U A46U G58A C70A
5. A18U C76A
6. G48A A66U U78G

A.
[-3.95, -1.14, -5.01, -1.97, -3.36, -1.56]

Field polymerase ribozyme fitness (log ratio) (entry G10U G17U G45A C85U C123G ) reads -0.92
